Test system: Candida albicans
Assay: Antimicrobial activity against Candida albicans MTCC7315 measured after 24 hrs by well-diffusion method
Format: functional
Conditions: MTCC7315, 24 h
Each record here notes measured MIC.

[[record]]
compound = "CCCCCCC(C/C=C\\CCCCCCCC(=O)OC)NC(=O)[C@@H](N)C(C)C (some centres undefined)"
readout_value = "> 125 µg/mL"

[[record]]
compound = "Clc1ccc(COC(Cn2ccnc2)c2ccc(Cl)cc2Cl)c(Cl)c1 (centres undefined) [MICONAZOLE]"
readout_value = "7.8 µg/mL"

[[record]]
compound = "CCCCCCC(C/C=C\\CCCCCCCC(=O)OC)NC(=O)[C@@H]1CCCN1 (some centres undefined)"
readout_value = "31.2 µg/mL"

[[record]]
compound = "CCCCCCC(C/C=C\\CCCCCCCC(=O)OC)NC(=O)[C@@H](N)CC(C)C (some centres undefined)"
readout_value = "> 125 µg/mL"

[[record]]
compound = "CCCCCCC(C/C=C\\CCCCCCCC(=O)OC)NC(=O)[C@@H](N)[C@@H](C)CC (some centres undefined)"
readout_value = "> 125 µg/mL"


Now take the following compound into account.
Notebook entry, Candida albicans assay: MIC of CCCCCCC(C/C=C\CCCCCCCC(=O)OC)NC(=O)[C@@H](N)Cc1c[nH]c2ccccc12 (some centres undefined) = ?
> 125 µg/mL

###

System: Candida albicans
Test: Antimicrobial activity against Candida albicans MTCC3958 measured after 24 hrs by well-diffusion method
Format: functional
Settings: MTCC3958, 24 h
Endpoint Label: MIC (µg/mL)
Give just the numeric value; µg/mL need not be written.

[[record]]
molecule = "CCCCCCC(C/C=C\\CCCCCCCC(=O)OC)NC(=O)[C@H](C)N (some centres undefined)"
unit_descriptor = "µg/mL"
readout_value = 7.8

[[record]]
molecule = "CCCCCCC(C/C=C\\CCCCCCCC(=O)OC)NC(=O)[C@@H]1CCCN1 (some centres undefined)"
unit_descriptor = "µg/mL"
readout_value = 31.2

[[record]]
molecule = "Clc1ccc(COC(Cn2ccnc2)c2ccc(Cl)cc2Cl)c(Cl)c1 (centres undefined)"
unit_descriptor = "µg/mL"
readout_value = 7.8


Now take the following molecule into account.
Using the record for CCCCCCC(C/C=C\CCCCCCCC(=O)OC)NC(=O)CN (centres undefined) , report its MIC.
7.8

###

Tested on: Candida albicans
Experiment: Antimicrobial activity against Candida albicans MTCC227 measured after 24 hrs by well-diffusion method
Type: functional
Conditions: MTCC227, 24 h
Endpoint Label: MIC (µg/mL)
Give just the numeric value; µg/mL need not be written.

Below are worked cases with known answers.
[[record]]
molecule = "Clc1ccc(COC(Cn2ccnc2)c2ccc(Cl)cc2Cl)c(Cl)c1 (centres undefined)"
endpoint_label = "MIC"
readout_value = 7.8

[[record]]
molecule = "CCCCCCC(C/C=C\\CCCCCCCC(=O)OC)NC(=O)[C@@H]1CCCN1 (some centres undefined)"
endpoint_label = "MIC"
readout_value = 31.2

[[record]]
molecule = "CCCCCCC(C/C=C\\CCCCCCCC(=O)OC)NC(=O)[C@H](C)N (some centres undefined)"
endpoint_label = "MIC"
readout_value = 15.6


Using the record for CCCCCCC(C/C=C\CCCCCCCC(=O)OC)NC(=O)CN (centres undefined) , report its MIC.
7.8

###

Tested on: Candida albicans
Test: Antimicrobial activity against Candida albicans MTCC1637 measured after 24 hrs by well-diffusion method
Type: functional
Conditions: MTCC1637, 24 h
Endpoint Label: MIC (µg/mL)
Give just the numeric value; µg/mL need not be written.

Below are worked cases with known answers.
[[record]]
compound = "Clc1ccc(COC(Cn2ccnc2)c2ccc(Cl)cc2Cl)c(Cl)c1 (centres undefined) [MICONAZOLE]"
unit_descriptor = "µg/mL"
readout_value = 7.8

[[record]]
compound = "CCCCCCC(C/C=C\\CCCCCCCC(=O)OC)NC(=O)[C@@H]1CCCN1 (some centres undefined)"
unit_descriptor = "µg/mL"
readout_value = 31.2

[[record]]
compound = "CCCCCCC(C/C=C\\CCCCCCCC(=O)OC)NC(=O)CN (centres undefined)"
unit_descriptor = "µg/mL"
readout_value = 7.8


Using the record for CCCCCCC(C/C=C\CCCCCCCC(=O)OC)NC(=O)[C@H](C)N (some centres undefined) , report its MIC.
15.6

###

Tested on: Candida albicans
Experiment: Antimicrobial activity against Candida albicans MTCC4748 measured after 24 hrs by well-diffusion method
Format: functional
Conditions: MTCC4748, 24 h
Endpoint Label: MIC (µg/mL)
Give just the numeric value; µg/mL need not be written.

[[record]]
compound = "CCCCCCC(C/C=C\\CCCCCCCC(=O)OC)NC(=O)CN (centres undefined)"
readout_value = 7.8

[[record]]
compound = "CCCCCCC(C/C=C\\CCCCCCCC(=O)OC)NC(=O)[C@H](C)N (some centres undefined)"
readout_value = 15.6

[[record]]
compound = "CCCCCCC(C/C=C\\CCCCCCCC(=O)OC)NC(=O)[C@@H]1CCCN1 (some centres undefined)"
readout_value = 31.2


Now take the following compound into account.
Using the record for Clc1ccc(COC(Cn2ccnc2)c2ccc(Cl)cc2Cl)c(Cl)c1 (centres undefined) [MICONAZOLE] , report its MIC.
7.8

###

Tested on: Pseudomonas aeruginosa
Test: Antimicrobial activity against Pseudomonas aeruginosa MTCCM2453 measured after 24 hrs by well-diffusion method
Assay type: functional
Details: MTCCM2453, 24 h
Endpoint Label: MIC

Below are worked cases with known answers.
[[record]]
compound = "CCCCCCC(C/C=C\\CCCCCCCC(=O)OC)NC(=O)[C@@H](N)Cc1ccccc1 (some centres undefined)"
endpoint_label = "MIC"
readout_value = "> 125 µg/mL"

[[record]]
compound = "CCCCCCC(C/C=C\\CCCCCCCC(=O)OC)NC(=O)[C@@H](N)C(C)C (some centres undefined)"
endpoint_label = "MIC"
readout_value = "> 125 µg/mL"

[[record]]
compound = "O=C(O)c1cn(C2CC2)c2cc(N3CCNCC3)c(F)cc2c1=O"
endpoint_label = "MIC"
readout_value = "0.9 µg/mL"


Now take the following compound into account.
Using the record for CCCCCCC(C/C=C\CCCCCCCC(=O)OC)NC(=O)[C@@H](N)CC(C)C (some centres undefined) , report its MIC.
> 125 µg/mL

###

Each record here notes measured MIC.
System: Candida albicans
Assay: Antimicrobial activity against Candida albicans MTCC7315 measured after 24 hrs by well-diffusion method
Type: functional
Conditions: MTCC7315, 24 h
Give just the numeric value; µg/mL need not be written.

[[record]]
molecule = "CCCCCCC(C/C=C\\CCCCCCCC(=O)OC)NC(=O)[C@H](C)N (stereo partly drawn)"
subject_of_test = "Candida albicans"
readout_value = 15.6


Using the record for CCCCCCC(C/C=C\CCCCCCCC(=O)OC)NC(=O)CN (stereo not drawn) , report its MIC.
7.8
